biological target: GCN2 (Homo sapiens, UniProt Q9P2K8); experiment: GCN2 enzymatic endpoint assay: phosphorylation of GFP-eIF2α measured by TR-FRET (Lanthascreen); assay type: biochemical; conditions: tested as described in Example 77; compound and/or hydrochloride, dihydrochloride or trifluoroacetic acid salt; read-out: IC 50 Activity
Sequence (Q9P2K8 whole entry): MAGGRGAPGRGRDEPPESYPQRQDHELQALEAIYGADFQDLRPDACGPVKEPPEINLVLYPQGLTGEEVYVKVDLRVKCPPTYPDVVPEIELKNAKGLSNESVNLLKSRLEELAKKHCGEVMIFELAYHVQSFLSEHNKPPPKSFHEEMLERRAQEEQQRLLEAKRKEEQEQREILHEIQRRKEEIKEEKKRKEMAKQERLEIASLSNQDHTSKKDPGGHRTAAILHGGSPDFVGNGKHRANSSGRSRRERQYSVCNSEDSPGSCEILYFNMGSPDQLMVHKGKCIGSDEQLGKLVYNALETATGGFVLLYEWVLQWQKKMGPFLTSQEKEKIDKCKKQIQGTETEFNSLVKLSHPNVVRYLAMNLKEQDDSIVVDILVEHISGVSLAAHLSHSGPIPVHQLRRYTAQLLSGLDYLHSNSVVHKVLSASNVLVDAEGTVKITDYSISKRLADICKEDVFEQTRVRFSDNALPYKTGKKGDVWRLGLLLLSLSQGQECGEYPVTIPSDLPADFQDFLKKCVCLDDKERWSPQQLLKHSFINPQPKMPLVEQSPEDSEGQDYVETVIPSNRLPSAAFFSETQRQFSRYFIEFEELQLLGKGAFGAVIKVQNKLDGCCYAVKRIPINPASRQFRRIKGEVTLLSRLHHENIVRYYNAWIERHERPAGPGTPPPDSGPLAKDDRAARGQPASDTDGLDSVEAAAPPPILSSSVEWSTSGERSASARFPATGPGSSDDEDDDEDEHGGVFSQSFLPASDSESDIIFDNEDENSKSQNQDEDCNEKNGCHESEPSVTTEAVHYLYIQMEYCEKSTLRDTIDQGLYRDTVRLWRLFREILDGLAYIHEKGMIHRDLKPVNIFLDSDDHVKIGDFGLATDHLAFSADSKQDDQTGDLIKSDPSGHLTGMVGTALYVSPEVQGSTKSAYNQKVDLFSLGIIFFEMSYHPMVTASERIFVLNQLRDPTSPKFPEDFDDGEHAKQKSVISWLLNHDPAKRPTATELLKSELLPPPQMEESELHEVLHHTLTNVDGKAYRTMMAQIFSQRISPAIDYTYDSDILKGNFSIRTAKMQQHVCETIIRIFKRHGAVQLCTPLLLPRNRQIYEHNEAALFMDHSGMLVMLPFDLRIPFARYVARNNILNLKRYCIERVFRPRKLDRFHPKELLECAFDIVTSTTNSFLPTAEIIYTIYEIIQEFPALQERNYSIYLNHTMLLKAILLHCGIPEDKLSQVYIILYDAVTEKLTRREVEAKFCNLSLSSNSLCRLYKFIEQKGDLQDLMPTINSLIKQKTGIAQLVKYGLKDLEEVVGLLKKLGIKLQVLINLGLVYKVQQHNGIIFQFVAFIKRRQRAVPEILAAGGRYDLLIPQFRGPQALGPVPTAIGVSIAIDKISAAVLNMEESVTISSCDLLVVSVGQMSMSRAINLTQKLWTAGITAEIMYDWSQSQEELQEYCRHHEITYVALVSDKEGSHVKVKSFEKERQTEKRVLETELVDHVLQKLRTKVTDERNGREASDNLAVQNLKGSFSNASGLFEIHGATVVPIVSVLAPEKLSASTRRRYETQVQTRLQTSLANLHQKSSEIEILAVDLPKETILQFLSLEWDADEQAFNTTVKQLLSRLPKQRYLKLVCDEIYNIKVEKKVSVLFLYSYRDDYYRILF
Endpoint label: IC50

The reported IC50 of the compound `O=C(N[C@H]1C[C@H](O)C1)[C@@H]1CC[C@@H](Nc2ncc3c(Br)nn(-c4cc(F)c5ncccc5c4)c3n2)C1` was 25 to 200 nM

The reported IC50 of the compound Cc1nnc(-c2ccc(-n3nc(Br)c4cnc(N[C@@H]5CCC6(CC(=O)N(C)C6=O)C5)nc43)cc2)s1 (stereo partly shown) was < 25 nM

The reported IC50 of the compound `CNC(=O)[C@]1(C)CC[C@@H](Nc2ncc3c(Br)nn(-c4cc(Cl)cc([C@@H](C)N)c4)c3n2)C1` was < 25 nM

The reported IC50 of the compound `CNC(=O)[C@]1(C)CC[C@@H](Nc2ncc3c(Br)nn(-c4ccc5nc(N)nc(N)c5c4)c3n2)C1` was 25 to 200 nM

The reported IC50 of the compound `O=C1CN(C(=O)[C@@H]2CC[C@@H](Nc3ncc4c(Br)nn(-c5cc(F)c6ncccc6c5)c4n3)C2)CN1` was 25 to 200 nM

The reported IC50 of the compound `N#Cc1cc(-n2nc(Br)c3cnc(N[C@@H]4CC[C@H](C(=O)NCC5(F)CNC5)C4)nc32)cc2cccnc12` was 25 to 200 nM

The reported IC50 of the compound `CNC(=O)[C@]1(C)CC[C@@H](Nc2ncc3c(Br)nn(-c4cc(OCCOC)c5ncccc5c4)c3n2)C1` was < 25 nM

The reported IC50 of the compound `O=C([C@@H]1CC[C@@H](Nc2ncc3c(Br)nn(-c4ccc5ncccc5c4)c3n2)C1)N1C[C@H]2C[C@@H]1CO2` was 25 to 200 nM

The reported IC50 of the compound `O=C(O)CCNC(=O)[C@@H]1CC[C@@H](Nc2ncc3c(Br)nn(-c4cc(F)c5ncccc5c4)c3n2)C1` was 25 to 200 nM

The reported IC50 of the compound `Cc1nnc(-c2ccc(-n3nc(Br)c4cnc(N[C@@H]5CC[C@@H](P(C)(C)=O)C5)nc43)cc2CCS(C)(=O)=O)s1` was 25 to 200 nM

The reported IC50 of the compound `CNC(=O)[C@]1(C)CC[C@@H](Nc2ncc3c(Br)nn(-c4ccc5c(c4)CCN(C(=O)C4CNC4)C5)c3n2)C1` was 25 to 200 nM

The reported IC50 of the compound `CNC(=O)[C@]1(C)CC[C@@H](Nc2ncc3c(Br)nn(-c4ccc(-c5ncco5)c(C(C)(C)C#N)c4)c3n2)C1` was 25 to 200 nM

The reported IC50 of the compound CC1(C(=O)N2CCC(F)(C#N)C2)CC[C@@H](Nc2ncc3c(Br)nn(-c4cc(F)c5ncccc5c4)c3n2)C1 (stereo partly shown) was 25 to 200 nM

The reported IC50 of the compound `O=C1CN(C(=O)[C@@H]2CC[C@@H](Nc3ncc4c(Br)nn(-c5cc(F)c6ncccc6c5)c4n3)C2)CCN1` was 25 to 200 nM

The reported IC50 of the compound `CNC(=O)[C@]1(CO)CC[C@@H](Nc2ncc3c(Br)nn(-c4ccc(-c5nnc(C)s5)c(CCC#N)c4)c3n2)C1` was 25 to 200 nM

The reported IC50 of the compound `COCCO[C@@H]1CCN(C(=O)[C@@H]2CC[C@@H](Nc3ncc4c(Br)nn(-c5ccc6ncccc6c5)c4n3)C2)C1` was 25 to 200 nM

The reported IC50 of the compound `CNC(=O)[C@]1(C)CC[C@@H](Nc2ncc3c(Br)nn(-c4ccc(-c5nnc(C(C)(C)O)s5)cc4)c3n2)C1` was 25 to 200 nM

The reported IC50 of the compound `CNC(=O)[C@]1(C)CC[C@@H](Nc2ncc3c(Br)nn(-c4cc(Cl)c(F)c(CC#N)c4)c3n2)C1` was 25 to 200 nM

The reported IC50 of the compound `COc1ccc(-n2nc(Br)c3cnc(N[C@@H]4CC[C@@H](C(=O)N5CCN(C)C(=O)C5)C4)nc32)cc1C#N` was 200 to 500 nM

The reported IC50 of the compound `CNC(=O)[C@]1(C)CC[C@@H](Nc2ncc3c(Br)nn(-c4ccc(-c5ncco5)c(OCCO)c4)c3n2)C1` was < 25 nM

The reported IC50 of the compound CS(=O)(=O)C1CC[C@@H](Nc2ncc3c(Br)nn(-c4cc(CCN)c5nccnc5c4)c3n2)C1 (stereo partly shown) was < 25 nM

The reported IC50 of the compound `O=C(N[C@@H]1CCNC[C@@H]1F)[C@@H]1CC[C@@H](Nc2ncc3c(Br)nn(-c4cc(F)c5ncccc5c4)c3n2)C1` was < 25 nM

The reported IC50 of the compound `COC(C)(C)CN(C)C(=O)[C@]1(C)CC[C@@H](Nc2ncc3c(Br)nn(-c4cc(F)c5ncccc5c4)c3n2)C1` was < 25 nM

The reported IC50 of the compound `COCCNS(=O)(=O)[C@H]1CC[C@@H](Nc2ncc3c(Br)nn(-c4ccc(-c5nnc(C)s5)cc4)c3n2)C1` was 25 to 200 nM

The reported IC50 of the compound `CNC(=O)[C@]1(CO)CC[C@@H](Nc2ncc3c(Br)nn(-c4ccc(-c5nnc(C)s5)cc4)c3n2)C1` was 25 to 200 nM

The reported IC50 of the compound Cc1nnc(-c2ccc(-n3nc(Br)c4cnc(N[C@@H]5CCC6(CC(=O)N(C)C6=O)C5)nc43)cc2CCC#N)s1 (stereo partly shown) was 25 to 200 nM

The reported IC50 of the compound `CNC(=O)[C@]1(C)CC[C@@H](Nc2ncc3c(Br)nn(-c4ccc(-c5nnc(C(C)(C)N)s5)c(C#N)c4)c3n2)C1` was 25 to 200 nM

The reported IC50 of the compound `Cc1nnc(-c2ccc(-n3nc(Br)c4cnc(N[C@@H]5CC[C@@](C)(C(=O)NC6CC6)C5)nc43)cc2CCC#N)s1` was 25 to 200 nM

The reported IC50 of the compound CNC(=O)[C@]1(C)CCC(Nc2ncc3c(Br)nn(-c4cc(F)cc(C5COC5)c4)c3n2)C1 (stereo partly shown) was 25 to 200 nM

The reported IC50 of the compound `Cc1nnc(-c2ccc(-n3nc(Br)c4cnc(N[C@@H]5CC[C@@](C)(N(C)C)C5)nc43)cc2)s1` was 25 to 200 nM

The reported IC50 of the compound `CNC(=O)[C@]1(C)CC[C@@H](Nc2ncc3c(Br)nn(-c4cc(CNCCOC)cc(OC(F)(F)F)c4)c3n2)C1` was 25 to 200 nM

Every entry's value here was drawn from patent US11046699B2.
